# test-system: Human 20S proteasome (Homo sapiens, UniProt P28074+P49721)
# protocol-summary: human proteasome assay (chymotrypsin-like activity, Suc-LLVY-Rho-110-DPro)
# condition-info: read-out: Hs Prot Max Response (%), individual replicate
Catalogue of Emax values
The figure you give is taken to be in %; do not add the unit.

Answered cases to consult:
>>> df
                              smiles_record  unit_descriptor  reported_measurement
0  COc1cccc(Cn2nc(C(=O)Nc3ccc(F)c(C(=O)NC4CC4)c3)ccc2=O)c1                %                     9
1  COc1ccc(Cn2nc(C(=O)Nc3ccc(F)c(C(=O)NCCN4CCOCC4)c3)ccc2=O)cc1                %                     9
2  COc1ncc(Cn2nc(C(=O)Nc3ccc(F)c(C(=O)NC4CC4)c3)ccc2=O)cc1F                %                    10
3  O=C(Nc1ccc(F)c(C(=O)NC2CC2)c1)c1ccc(=O)n(Cc2ccccc2)n1                %                     7
4  O=C(Nc1cccc(C(=O)NC2CC2)c1)c1ccc(=O)n(Cc2ccccc2)c1                %                    10

Query block: Which measured Emax value corresponds to "CNC(=O)c1cc(NC(=O)c2ccc(=O)n(Cc3ccc(OC)c(F)c3)n2)ccc1F" ?
Result block: 6

Query block: # query: Emax of entry "COc1ccc(Cn2nc(C(=O)Nc3ccc(F)c(C(=O)N[C@H]4C[C@H](OC)C4)c3)ccc2=O)cc1F"
Result block: 20

Query block: Using the record for "COc1ccc(Cn2nc(C(=O)Nc3ccc(F)c(C(=O)NC4CC4)c3)ccc2=O)cc1C#N" , report its Emax.
Result block: 4

Query block: For the compound "COc1ccc(Cn2nc(C(=O)Nc3ccc(F)c(C(=O)N[C@H]4C[C@H](OC)C4)c3)ccc2=O)cc1" , what Emax is on record?
Result block: 16

Query block: Entry "COc1ccc(Cn2nc(C(=O)Nc3ccc(F)c(C(=O)N[C@H]4C[C@H](N5CCOCC5)C4)c3)ccc2=O)cc1F" : reported Emax = ?
Result block: 13
